# ASSAY: Toxicity in Wistar albino rat assessed as mortality after 4 days
# Assay type: organism-based
# APPLIED_CONDITIONS: in vivo, read-out: Activity
MEASUREMENT_LABEL: mortality at 96 h (%)

- COMPOUND: "CC(N)Cc1ccccc1 (stereo unspecified) [AMPHETAMINE]"
  UNIT_OF_MEASUREMENT: "%"
  REPORTED_VALUE: 10

====

# ASSAY: Acute toxicity in ip dosed mouse
# Format: organism-based
# APPLIED_CONDITIONS: in vivo
MEASUREMENT_LABEL: LD50 (mg/kg)

- COMPOUND: "COc1ccc(C[C@H]2c3cc(O)c(OC)cc3CCN2C)cc1O [(S)-RETICULINE]"
  MEASUREMENT_LABEL: "LD50"
  UNIT_OF_MEASUREMENT: "mg/kg"
  REPORTED_VALUE: 56
